Tested on: Cyperus serotinus, Rottb.
Assay: Preemergence weed control under flooded paddy conditions, CYPSE (Flatsedge)
Type: in vivo
Details: Rate 0.2500 kg/ha, preemergence, rated three to four weeks after treatment
experimental_readout: CYPSE herbicidal effect rating

- compound: "CC(C)=CCOCc1nsc2ccc(-n3c(=O)cc(C(F)(F)F)n(C)c3=O)cc12"
  experimental_readout: "CYPSE herbicidal effect rating"
  value: 0.0
- compound: "Cn1c(C(F)(F)F)cc(=O)n(-c2ccc3snc(CCBr)c3c2)c1=O"
  experimental_readout: "CYPSE herbicidal effect rating"
  value: 0.0
- compound: "C=C(C(=O)OC)C(C)OCc1nsc2ccc(-n3c(=O)cc(C(F)(F)F)n(C)c3=O)cc12 (centres unmarked)"
  experimental_readout: "CYPSE herbicidal effect rating"
  value: 0.0
- compound: "Cn1c(C(F)(F)F)cc(=O)n(-c2ccc3snc(-c4ccccc4OCC(=O)NS(C)(=O)=O)c3c2)c1=O"
  experimental_readout: "CYPSE herbicidal effect rating"
  value: 9.0
- compound: "C#CCOC(=O)COc1c(-c2nsc3ccc(-n4c(=O)cc(C(F)(F)F)n(C)c4=O)cc23)ccc(C)c1C"
  experimental_readout: "CYPSE herbicidal effect rating"
  value: 2.0
- compound: "Cc1ccc(OCC(=O)OC(C)(C)C)c(-c2noc3ccc(-n4c(=O)cc(C(F)(F)F)n(C)c4=O)c(Cl)c23)c1"
  experimental_readout: "CYPSE herbicidal effect rating"
  value: 0.0
- compound: "COc1c(-c2nsc3ccc(-n4c(=O)cc(C(F)(F)F)n(C)c4=O)cc23)ccc(C)c1C"
  experimental_readout: "CYPSE herbicidal effect rating"
  value: 9.0
- compound: "CO/N=C/c1nsc2ccc(-n3c(=O)cc(C(F)(F)F)n(C)c3=O)cc12"
  experimental_readout: "CYPSE herbicidal effect rating"
  value: 9.0
- compound: "Cn1c(C(F)(F)F)cc(=O)n(-c2ccc3snc(-c4ccc(OCC(=O)OC(C)(C)C)cc4)c3c2)c1=O"
  experimental_readout: "CYPSE herbicidal effect rating"
  value: 7.0
- compound: "Cc1nsc2ccc(-n3c(=O)c(Cl)c(C(F)(F)F)n(C)c3=O)cc12"
  experimental_readout: "CYPSE herbicidal effect rating"
  value: 0.0
- compound: "CC(=O)Nc1nnc(S(=O)(=O)NC(=O)COc2ccc(C)cc2-c2nsc3ccc(-n4c(=O)cc(C(F)(F)F)n(C)c4=O)cc23)s1"
  experimental_readout: "CYPSE herbicidal effect rating"
  value: 0.0
- compound: "COC(=O)COc1c(-c2nsc3ccc(-n4c(=O)cc(C(F)(F)F)n(C)c4=O)cc23)ccc(C)c1C"
  experimental_readout: "CYPSE herbicidal effect rating"
  value: 9.0
- compound: "CCOc1ccc2sc(S(=O)(=O)NC(=O)COc3ccc(C)cc3-c3nsc4ccc(-n5c(=O)cc(C(F)(F)F)n(C)c5=O)cc34)nc2c1"
  experimental_readout: "CYPSE herbicidal effect rating"
  value: 0.0
- compound: "Cn1c(C(F)(F)F)cc(=O)n(-c2ccc3snc(C=C(Cl)Cl)c3c2)c1=O"
  experimental_readout: "CYPSE herbicidal effect rating"
  value: 4.0
- compound: "C=CCOc1nc(C(F)(F)F)cc(=O)n1-c1ccc2snc(-c3cc(C)ccc3OC)c2c1"
  experimental_readout: "CYPSE herbicidal effect rating"
  value: 0.0
- compound: "Cn1c(C(F)(F)F)cc(=O)n(-c2ccc3snc(COCCCCl)c3c2)c1=O"
  experimental_readout: "CYPSE herbicidal effect rating"
  value: 7.0
- compound: "Cn1c(C(F)(F)F)cc(=O)n(-c2ccc3snc(C=C(F)Br)c3c2)c1=O"
  experimental_readout: "CYPSE herbicidal effect rating"
  value: 0.0
